- Tested on: DU-145 prostate
- Assay Info: NCI-60 one-dose screen, 48 h (100 = growth as untreated, 0 = no growth, -100 = all killed)
- Experimental Parameters: 10 µM unless noted
Compounds without any hit were thinned out: in the full panel of roughly 83,000, 20% have a hit.
Here, each record is paired with measured growth data.

Compound: COc1cc(NCCCN=C(N)NC(N)=NC(C)C)c2ncccc2c1
Units Of Measure: %
growth: 106
//
Compound: CC(C(=O)n1cc(-c2ccccc2)c(-c2ccccc2)c1)c1ccccc1 (configuration not stated)
Units Of Measure: %
growth: 113
//
Compound: Cc1cc(C)c(NC(=O)c2sc3nc4c(cc3c2N)CN(Cc2ccccc2)CC4)c(C)c1
Units Of Measure: %
growth: 27.6
//
Compound: Nc1c(C(=O)Nc2c(Cl)cccc2Cl)sc2nc3c(cc12)CCCCC3
Units Of Measure: %
growth: 70.4
//
Compound: ClC1=C(Cl)C(Cl)=C(Cl)C1=Cc1ccc(Cl)cc1Cl
Units Of Measure: %
growth: -5.47
//
Compound: Nc1c(C(=O)Nc2cccc(C(F)(F)F)c2)sc2nc3c(cc12)C(O)CCC3 (configuration not stated)
Units Of Measure: %
growth: 9.15
//
Compound: O=C(Nc1ccc(Br)c(Cl)c1)c1cc(F)ccc1O
Units Of Measure: %
growth: 23.5

* * *

Here, each record is paired with measured growth data.
- Test system: KM12 colon
- Assay Info: NCI-60 one-dose screen, 48 h (100 = growth as untreated, 0 = no growth, -100 = all killed)
- Experimental Parameters: 10 µM unless noted
About 83,000 compounds went through this panel and 20% of them were active in at least one assay; those are over-represented in the sample as a whole.

Structure Smiles String: CNC(C)=O
growth [%]: 106

Structure Smiles String: Clc1cccc(Cl)c1Cn1c(-c2cncs2)nc2ccccc21
growth [%]: 80.5

Structure Smiles String: CC[C@H](C)[C@H]1NC(=O)[C@@H](N[C@](C)(O)[C@@H](N)CC(C)C)[C@@H](C)OC(=O)[C@H](Cc2ccc(OC)cc2)N(C)C(=O)[C@@H]2CCCN2C(=O)[C@H](CC(C)C)NC(=O)[C@@H](C)C(=O)[C@H](C(C)C)OC(=O)C[C@@H]1O
growth [%]: -14.8

Structure Smiles String: O=S(=O)(NCCCNc1cc(-c2cn(-c3ccccc3)nc2-c2cccc(O)c2)ccn1)c1cccc(F)c1
growth [%]: 28.2

Structure Smiles String: COc1ncc(-c2ccc3ncnc(Nc4cccc(Cl)c4)c3c2)cc1NS(=O)(=O)CCN1CCOCC1
growth [%]: 26

Structure Smiles String: CCOP(=O)(CCN1CCN(CCCCCOc2cc3c(cc2OC)C(=O)N2CCC[C@H]2C=N3)CC1)OCC
growth [%]: 111

Structure Smiles String: C=CCc1cc(Cl)cc2c(OC(C)=O)c(C(C)=O)c(-c3ccccc3)nc12
growth [%]: 99.5

Structure Smiles String: O=C1Nc2cc(Cl)ccc2/C1=C/c1ccc(N2CCOCC2)s1
growth [%]: 105

* * *

- System: MCF7 breast
- Assay Info: NCI-60 one-dose screen, 48 h (100 = growth as untreated, 0 = no growth, -100 = all killed)
- Experimental Parameters: 10 µM unless noted
- Experimental: Growth inhibition of the MCF7 human tumor cell line is measured as a screen for anti-cancer activity. Cells are grown in 96 well plates and exposed to the test compound for 48 hours. Compounds are tested at a single concentration, which is 10^-5 M for most compounds. The reported endpoint is percent growth (GI% or GIPRCNT), where numbers from 0 - 100% represent growth inhibition, and numbers from -100% - 0 represent cell death. For example, a value of 40 represents 60% growth inhibition. […]
This is part of a sample that, as a whole, favours compounds with a hit. Of some 83,000 tested, about 20% had one in any assay. The source made the active and inactive calls. How the source made its calls: active means growth percent below 10; inactive means the rest.
Here, each record is paired with measured growth data.

Compound: CCCCCC/C=C\CCCCCCCCOc1ccc(CCOP(=O)(O)OCC[N+](C)(C)C)cc1
growth: 79.2% (inactive)

Compound: O=C(CN1CCN(c2cc3c(cc2F)c(=O)c(C(=O)O)cn3C2CC2)CC1)Nc1ccc(C(=O)/C=C/c2ccccc2)cc1
growth: 12.5% (inactive)

Compound: C=C1C(=O)O[C@H]2[C@H]1CC/C(Cn1cc(-c3ccccc3C(F)(F)F)nn1)=C\CC[C@@]1(C)O[C@@H]21
growth: -70.5% (active)

Compound: Cc1cc(Cl)ccc1OC(C)C(=O)Nc1nnc(C2CC2)s1 (stereo not drawn)
growth: 112% (inactive)

Compound: Cc1oc2nc[nH]c(=O)c2c1C(=O)/C=C/c1ccc(Cl)cc1Cl
growth: 39% (inactive)

Compound: CCC1=C[C@@H]2CN(C1)Cc1c([nH]c3ccccc13)[C@@](C(=O)OC)(c1cc3c(cc1OC)N(C=O)[C@H]1[C@@](O)(C(=O)OC)[C@H](OC(C)=O)[C@]4(CC)[C@@H]5C[C@@H]5CN5CC[C@]31[C@@H]54)C2
growth: 10.9% (inactive)

Compound: CCN1C(=O)N(CC)C2C1NN=c1s/c(=C\c3ccccn3)c(=O)n12 (stereo not drawn)
growth: 22.5% (inactive)

Compound: COc1cccc(-n2cc(-c3nc(Cl)c4ccccc4n3)nn2)c1
growth: 92.6% (inactive)
